Below is a list of entries, each paired with its recorded Corn plant response rating value.
- System: corn
- assayExplanation: Test A pre-/postemergence greenhouse test
- Type: in vivo, Zea mays
- conditionContext: Preemergence, 125 g ai/ha; 0 to 100 scale, 0 no effect, 100 complete control
- From the text: Seeds of barnyardgrass (Echinochloa crus-galli), crabgrass (Digitaria sanguinalis), giant foxtail (Setaria faberi), morningglory (Ipomoea spp.), redroot pigweed (Amaranthus retroflexus), velvetleaf (Abutilon theophrasti), wheat (Triticum aestivum), and corn (Zea mays) were planted into a blend of loam soil and sand and treated preemergence with a directed soil spray using test compounds formulated in a non-phytotoxic solvent mixture which included a surfactant. […]
Just the number, please, no unit after it.

1) CCCc1cc[n+]([O-])c(S(=O)(=O)Cc2c(C(F)(F)F)nn(C)c2OC(F)F)c1 = 20
2) Cn1nc(C(F)(F)F)c(C[S+]([O-])c2ccc(F)c[n+]2[O-])c1OC(F)F (stereo not drawn) = 40
3) Cc1cc[n+]([O-])c(S(=O)(=O)C(C)c2c(C(F)(F)F)nn(C)c2Cl)c1 (racemic) = 0
4) O=S(=O)(Cc1c(C(F)(F)F)nn(CC(F)(F)F)c1Cl)c1cccc[n+]1[O-] = 0
5) Cn1nc(C(F)(F)F)c(CS(=O)(=O)c2cccc[n+]2[O-])c1Cl = 40
6) CC(c1c(C(F)(F)F)nn(C)c1OC(F)F)S(=O)(=O)c1ccc(Br)c[n+]1[O-] (racemic) = 0
7) Cc1cc([S+]([O-])Cc2c(C(F)(F)F)nn(C)c2OCC(F)(F)F)[n+]([O-])cc1Cl (stereo not drawn) = 20
8) CC(c1c(C(F)(F)F)nn(C)c1OC(F)F)S(=O)(=O)c1cccc[n+]1[O-] (stereo not drawn) = 20
9) CCn1nc(C(F)(F)F)c(CS(=O)(=O)c2cccc[n+]2[O-])c1OCC(F)(F)F = 0
10) Cn1nc(C(F)(F)F)c(C[S+]([O-])c2cccc[n+]2[O-])c1OCC(F)(F)C(F)(F)F (stereo not drawn) = 30

GET /values?readout=Corn plant response rating&item= CC(c1c(C(F)(F)F)nn(C)c1OCC(F)(F)F)S(=O)(=O)c1cccc[n+]1[O-] (racemic)
70

Could you share which Corn plant response rating value was measured for Cn1nc(C(F)(F)C(F)(F)F)c(CS(=O)(=O)c2ccc(Cl)c[n+]2[O-])c1OCC(F)(F)F ?
0

Tell me the measured Corn plant response rating of Cn1nc(C(F)(F)F)c(C(Cl)S(=O)(=O)c2cccc[n+]2[O-])c1OCC(F)(F)F (racemic) , please.
0

---

- Test system: Italian ryegrass
- assayExplanation: Test F preemergence test
- Format: in vivo, Lolium multiflorum
- conditionContext: 62 g ai/ha, Preemergence; scale 0 to 100
measurementType: Ryegrass, Italian plant response rating

// lookup Ryegrass, Italian plant response rating for Cn1nc(C(F)(F)F)c(CS(=O)(=O)c2cccc[n+]2[O-])c1OCC(F)(F)F [Compound 29]
100

# input compound: Cn1nc(C(F)(F)F)c(C[S+]([O-])c2cccc[n+]2[O-])c1OC(F)F (stereo not shown) [Compound 3] ; wanted: its Ryegrass, Italian plant response rating
80

Query (compound): Cn1nc(C(F)(F)F)c(C[S+]([O-])c2ccc(Cl)c[n+]2[O-])c1OC(F)F (stereo not shown) [Compound 6] ; field requested: Ryegrass, Italian plant response rating
85

Form field: reported Ryegrass, Italian plant response rating of Cc1cc[n+]([O-])c(S(=O)(=O)C(Cl)c2c(C(F)(F)F)nn(C)c2Cl)c1 (racemic) [Compound 22]
70

Entry Cc1cc[n+]([O-])c([S+]([O-])Cc2c(C(F)(F)F)nn(C)c2OC(F)F)c1 (stereo not shown) [Compound 1] : reported Ryegrass, Italian plant response rating = ?
90

I'd like to know its Ryegrass, Italian plant response rating. The compound in question is Cn1nc(C(F)(F)F)c(C[S+]([O-])c2cccc[n+]2[O-])c1Cl (stereo not shown) [Compound 8]
75

Item CC(c1c(C(F)(F)F)nn(C)c1OC(F)F)S(=O)(=O)c1cccc[n+]1[O-] (stereo not shown) [Compound 5] has what recorded Ryegrass, Italian plant response rating?
75

---

- Tested on: barnyardgrass
- assayExplanation: Test F preemergence test
- Assay type: in vivo, Echinochloa crus-galli
- conditionContext: 16 g ai/ha, preemergence; scale 0 to 100 (0 no effect, 100 complete control)
// Plant response rating, Barnyardgrass lookup, one value per entry
Answer with the value's number alone.

Please review the following examples before continuing.
1. CC(c1c(C(F)(F)F)nn(C)c1OCC(F)(F)F)S(=O)(=O)c1cccc[n+]1[O-] (racemic) = 100
2. CCn1nc(C(F)(F)F)c(C[S+]([O-])c2cc(C)cc[n+]2[O-])c1OCC(F)(F)F (racemic) = 30
3. CCn1nc(C(F)(F)F)c(CS(=O)(=O)c2cc(C)cc[n+]2[O-])c1OCC(F)(F)F = 65

Any idea what its Plant response rating, Barnyardgrass is? The compound is CC(Oc1c(C[S+]([O-])c2cccc[n+]2[O-])c(C(F)(F)F)nn1C)C(F)(F)F (stereo not drawn)
65

What value of measured Plant response rating, Barnyardgrass is listed for Cn1nc(C(F)(F)F)c(C[S+]([O-])c2ccc(Cl)c[n+]2[O-])c1OCC(F)F (stereo not drawn) ?
50

Request the reported Plant response rating, Barnyardgrass associated with Cn1nc(C(F)(F)C(F)(F)F)c(C[S+]([O-])c2cccc[n+]2[O-])c1OCC(F)(F)F (stereo not drawn)
20

---

- System: blackgrass
- assayExplanation: Test C pre-/postemergence test
- Type: in vivo, Alopecurus myosuroides
- conditionContext: 62 g ai/ha, Preemergence; scale 0 to 100
measurementType: Blackgrass plant response rating
Lab note: write the figure by itself, no unit.

1) Cn1nc(C(F)(F)F)c(C[S+]([O-])c2cccc[n+]2[O-])c1OCC(F)(F)F (racemic) = 100

Data request, read-out Blackgrass plant response rating, for Cn1nc(C(F)(F)F)c(C(Cl)S(=O)(=O)c2cccc[n+]2[O-])c1OCC(F)(F)F (racemic)
95

Quick one: Blackgrass plant response rating of Cn1nc(C(F)(F)F)c(C[S+]([O-])c2ccc(F)c[n+]2[O-])c1OCC(F)(F)F (stereo not shown) ?
100

I'd like to know its Blackgrass plant response rating. The compound in question is [O-][n+]1cc(Cl)ccc1[S+]([O-])Cc1c(C(F)(F)F)nn(CC(F)(F)F)c1Cl (stereo not shown)
50

Data request, read-out Blackgrass plant response rating, for Cn1nc(C(F)(F)F)c(C[S+]([O-])c2cccc[n+]2[O-])c1OCC(F)F (stereo not shown)
100

Look up Blackgrass plant response rating for this compound: Cn1nc(C(F)(F)F)c(CS(=O)(=O)c2cc(C(C)(C)C)cc[n+]2[O-])c1OC(F)F
0

What value of measured Blackgrass plant response rating is listed for CC(C)c1cc[n+]([O-])c([S+]([O-])Cc2c(C(F)(F)F)nn(C)c2OC(F)F)c1 (stereo not shown) ?
70

---

// Oat, Wild plant response rating lookup, one value per entry
- Tested on: wild oat
- assayExplanation: Test C pre-/postemergence test
- Type: in vivo, Avena fatua
- conditionContext: preemergence, 250 g ai/ha; scale 0 (no effect) to 100 (complete control)

Before answering, review these 5 worked examples.
1. C#CCOc1c(C[S+]([O-])c2cccc[n+]2[O-])c(C(F)(F)F)nn1C (stereo not drawn) = 95
2. Cc1cc[n+]([O-])c(S(=O)(=O)Cc2c(C(F)(F)C(F)(F)F)nn(C)c2OCC(F)(F)F)c1 = 95
3. Cn1nc(C(F)(F)F)c(CS(=O)(=O)c2cccc[n+]2[O-])c1OCC(F)F = 95
4. CCc1cc[n+]([O-])c([S+]([O-])Cc2c(C(F)(F)F)nn(C)c2OCC(F)(F)F)c1 (stereo not drawn) = 90
5. CCn1nc(C(F)(F)F)c(CS(=O)(=O)c2cc(C)cc[n+]2[O-])c1OCC(F)(F)F = 98

Quick one: Oat, Wild plant response rating for CC(c1c(C(F)(F)F)nn(CC(F)(F)F)c1Cl)[S+]([O-])c1cccc[n+]1[O-] (stereo not drawn) ?
50

---

- Tested on: morningglory
- assayExplanation: Test A pre-/postemergence greenhouse test
- Format: in vivo, Ipomoea spp.
- conditionContext: Preemergence, 125 g ai/ha; 0 to 100 scale, 0 no effect, 100 complete control
Listed compounds paired with reported Morningglory plant response rating
Returns: the value as a bare number; no unit string appended.

Consider the worked cases shown below.
1) Cc1cc[n+]([O-])c(S(=O)(=O)C(Cl)c2c(C(F)(F)F)nn(CC(F)(F)F)c2Cl)c1 (stereo not shown) [Compound 56] = 0
2) Cn1nc(C(F)(F)F)c(CS(=O)(=O)c2cccc[n+]2[O-])c1OC(F)F [Compound 4] = 80
3) Cn1nc(C(F)(F)F)c(C[S+]([O-])c2ccc(Cl)c[n+]2[O-])c1Cl (racemic) [Compound 17] = 10
4) CC(C)c1cc[n+]([O-])c([S+]([O-])Cc2c(C(F)(F)F)nn(C)c2OC(F)F)c1 (stereo not shown) [Compound 109] = 60
5) CCn1nc(C(F)(F)F)c(CS(=O)(=O)c2cc(C)cc[n+]2[O-])c1OCC(F)(F)F [Compound 64] = 30
6) CCn1nc(C(F)(F)F)c(C[S+]([O-])c2cccc[n+]2[O-])c1OCC(F)(F)F (racemic) [Compound 65] = 60

Short answer please: Morningglory plant response rating, morningglory, entry Cc1cc[n+]([O-])c(S(=O)(=O)C(C)c2c(C(F)(F)F)nn(C)c2Cl)c1 (racemic) [Compound 14]
10

Can you look up Morningglory plant response rating on morningglory for CCCc1cc[n+]([O-])c([S+]([O-])Cc2c(C(F)(F)F)nn(C)c2OCC(F)(F)F)c1 (stereo not shown) [Compound 114] ?
70

What is its Morningglory plant response rating for morningglory? Entry: Cn1nc(C(F)(F)F)c(C[S+]([O-])c2cc(F)cc[n+]2[O-])c1Cl (racemic) [Compound 42]
30

For morningglory, provide Morningglory plant response rating of CC(c1c(C(F)(F)F)nn(CC(F)(F)F)c1Cl)S(=O)(=O)c1ccc(Cl)c[n+]1[O-] (stereo not shown) [Compound 55] please.
0

Request - read-out Morningglory plant response rating | tested on morningglory | compound Cn1nc(C(F)(F)F)c(C(Cl)S(=O)(=O)c2cccc[n+]2[O-])c1OC(F)F (stereo not shown) [Compound 51]
50

Recorded Morningglory plant response rating for Cc1cc[n+]([O-])c(S(=O)(=O)Cc2c(C(F)(F)F)nn(C)c2OC(F)F)c1 [Compound 2] with morningglory, please?
80
